Origin of values: patent US20250034147A1

Measured DC50, listed per entry for reference.
- Test system: HiBiT-tagged MDM2 (Homo sapiens, UniProt Q00987)
- Construct: expressed in transfected cells
- Sequence (Q00987 whole entry): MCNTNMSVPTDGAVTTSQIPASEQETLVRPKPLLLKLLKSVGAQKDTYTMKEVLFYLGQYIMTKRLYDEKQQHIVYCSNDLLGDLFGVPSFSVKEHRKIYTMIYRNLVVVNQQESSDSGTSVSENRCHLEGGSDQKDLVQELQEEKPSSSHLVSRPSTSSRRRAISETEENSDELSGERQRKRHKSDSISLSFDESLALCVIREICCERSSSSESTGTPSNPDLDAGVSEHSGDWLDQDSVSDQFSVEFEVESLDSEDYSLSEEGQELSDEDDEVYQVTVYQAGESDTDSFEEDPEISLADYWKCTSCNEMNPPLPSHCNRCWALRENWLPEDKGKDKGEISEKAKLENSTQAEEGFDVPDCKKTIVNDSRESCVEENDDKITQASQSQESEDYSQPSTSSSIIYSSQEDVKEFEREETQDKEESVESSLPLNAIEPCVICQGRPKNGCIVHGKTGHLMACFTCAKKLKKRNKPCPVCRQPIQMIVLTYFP
- Measurement notes: MDM2 HiBit HEK293T degradation
- Assay type: cell-based
- Particulars: HEK293T cells stably expressing C-terminally HiBiT-tagged MDM2; 4 h; read-out: MDM2 HiBit HEK293T degradation 4 h: Average external-Abs DC50

Illustrative cases are given below, each with its answer.
{"Compound": "Cn1c(=O)n(C2CCC(=O)NC2=O)c2ccc(N3CC4(CN(C[C@H]5CC[C@H](NC(=O)[C@@H]6NC7(CCCCC7)[C@@]7(C(=O)Nc8cc(Cl)ccc87)[C@H]6c6cccc(Cl)c6F)CC5)C4)C3)cc21 (stereo partly shown) [I-88]", "DC50": "< 10 nM"}
{"Compound": "Cn1c(=O)n(C2CCC(=O)NC2=O)c2ccc(CCN3CCC(NC(=O)[C@@H]4NC5(CCCCC5)[C@@]5(C(=O)Nc6cc(Cl)ccc65)[C@H]4c4cccc(Cl)c4F)CC3)cc21 (stereo partly shown) [I-97]", "DC50": "< 10 nM"}
{"Compound": "Cc1ncsc1-c1ccc(CNC(=O)[C@@H]2C[C@@H](O)CN2C(=O)[C@@H](NC(=O)C2(F)CC2)C(C)(C)C)c(OCCCCCCCCNC(=O)[C@H]2CC[C@H](NC(=O)[C@@H]3NC4(CCCCC4)[C@@]4(C(=O)Nc5cc(Cl)ccc54)[C@H]3c3cccc(Cl)c3F)CC2)c1 [I-149]", "DC50": "> 1000 nM"}

So, Cn1c(=O)n(C2CCC(=O)NC2=O)c2ccc(CC3(C(=O)O)CCN(C(=O)[C@H]4CC[C@H](NC(=O)[C@@H]5NC6(CCCCC6)[C@@]6(C(=O)Nc7cc(Cl)ccc76)[C@H]5c5cccc(Cl)c5F)CC4)CC3)cc21 (stereo partly shown) [I-131] ? Its DC50 was 100 to 1000 nM

====

- Test system: HiBiT-tagged MDM2 (Homo sapiens)
- Construct: expressed in transfected cells
- Measurement notes: MDM2 HiBit HEK293T degradation
- Format: cell-based
- Particulars: HEK293T cells stably expressing C-terminally HiBiT-tagged MDM2; 4 h; read-out: MDM2 HiBit HEK293T degradation 4 h: Average external-Abs DC50
Assay metric: DC50

Illustrative cases are given below, each with its answer.
{"Compound": "O=C1CCN(c2ccc(CCCCN3CCN(C[C@H]4CC[C@H](NC(=O)[C@@H]5NC6(CCCCC6)[C@@]6(C(=O)Nc7cc(Cl)ccc76)[C@H]5c5cccc(Cl)c5F)CC4)CC3)cc2)C(=O)N1 [I-208]", "Test system": "HiBiT-tagged MDM2 (Homo sapiens)", "DC50": "> 1000 nM"}
{"Compound": "COc1cc2c(cc1OC(C)C)[C@H](c1ccc(Cl)cc1)N(c1ccc(N(C)CC(=O)N3CCN(CCCCCCc4ccc5c(c4)n(C)c(=O)n5C4CCC(=O)NC4=O)CC3)cc1)C(=O)C2 (some centres unmarked) [I-48]", "Test system": "HiBiT-tagged MDM2 (Homo sapiens)", "DC50": "> 1000 nM"}
{"Compound": "CN1CCN(C[C@H]2CC[C@H](NC(=O)[C@@H]3NC4(CCCCC4)[C@@]4(C(=O)Nc5cc(Cl)ccc54)[C@H]3c3cccc(Cl)c3F)CC2)C[C@@H]1CCc1ccc2c(c1)n(C)c(=O)n2C1CCC(=O)NC1=O (some centres unmarked) [I-13]", "Test system": "HiBiT-tagged MDM2 (Homo sapiens)", "DC50": "< 10 nM"}
{"Compound": "Cn1c(=O)n(C2CCC(=O)NC2=O)c2ccc(N3CC4(CCN(C(=O)[C@H]5CC[C@H](NC(=O)[C@@H]6NC7(CCCCC7)[C@@]7(C(=O)Nc8cc(Cl)ccc87)[C@H]6c6cccc(Cl)c6F)CC5)CC4)C3)cc21 (some centres unmarked) [I-86]", "Test system": "HiBiT-tagged MDM2 (Homo sapiens)", "DC50": "< 10 nM"}

Now for the compound whose DC50 we want.
So, COc1cc2c(cc1OC(C)C)[C@H](c1ccc(Cl)cc1)N(c1ccc(N(C)C[C@H]3CC[C@H](N(CCC(=O)O)C(=O)CCCCc4ccc5c(c4)n(C)c(=O)n5C4CCC(=O)NC4=O)CC3)cc1)C(=O)C2 (some centres unmarked) [I-12] ? Its DC50 was 100 to 1000 nM
